experiment: Stability in chronic wound extracts (CWE), capillary zone electrophoresis; format: in vitro ADME, human; details: 1 mg/ml in PBS mixed 1:1 with CWE (1 mg/ml protein, pool of 5 donors) in PBS, 37°C, 2 h; CZE, UV 200 nm, ratio to imidazole, 0 h = 100%; experiment 2 of 3
Where no end group is shown, it is not given here.
Can you tell me Percentage intact, CWE 2h for the items I'm about to list?
Give the value in % but do not write % after it.

For reference, reported Percentage intact, CWE 2h for DSHEKRHHGYRRKFHEKHHSHREFPFYGDYGSNYLYDN [Hst1] stands at 87.1828

For reference, reported Percentage intact, CWE 2h for RKFHEKHHSHREFPFYGDYGSNYLYDN [Hst2] stands at 97.4179

For reference, reported Percentage intact, CWE 2h for cyclo(DNLPETGGDSHEKRHHGYRRKFHEKHHSHREFPFYGDYGSNYLY) [cHst1] stands at 97.8952

For reference, reported Percentage intact, CWE 2h for SHREFPFYGDYGS [mad-Hst1] stands at 99.5769

* * *

assay: Stability in CWE with protease inhibitor cocktail (PIC), capillary zone electrophoresis; type: in vitro ADME, human; details: 1 mg/ml in PBS mixed 1:1 with CWE (1 mg/ml protein, pool of 5 donors) in PBS containing PIC (final 1:140 v/v), 37°C, 8 h; CZE, ratio to imidazole, 0 h = 100%; experiment 2 of 3
Where no end group is shown, it is not given here.
reported.property: Percentage intact, CWE + PIC 8h (%)
Give the value in % but do not write % after it.

For reference, reported Percentage intact, CWE + PIC 8h for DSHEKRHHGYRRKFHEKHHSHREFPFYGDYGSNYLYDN [Hst1] stands at 75.4466

For reference, reported Percentage intact, CWE + PIC 8h for SHREFPFYGDYGS [mad-Hst1] stands at 92.2482

For reference, reported Percentage intact, CWE + PIC 8h for cyclo(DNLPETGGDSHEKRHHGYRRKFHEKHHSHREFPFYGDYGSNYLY) [cHst1] stands at 79.1445

For reference, reported Percentage intact, CWE + PIC 8h for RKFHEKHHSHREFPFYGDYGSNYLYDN [Hst2] stands at 89.4382

* * *

Can you tell me Percentage intact, CWE 4h for the items I'm about to list?
assay: Stability in chronic wound extracts (CWE), capillary zone electrophoresis; format: in vitro ADME, human; details: 1 mg/ml in PBS mixed 1:1 with CWE (1 mg/ml protein, pool of 5 donors) in PBS, 37°C, 4 h; CZE, UV 200 nm, ratio to imidazole, 0 h = 100%; experiment 3 of 3
Where no end group is shown, it is not given here.
// unit must come after the numeric part

For reference, reported Percentage intact, CWE 4h for SHREFPFYGDYGS [mad-Hst1] stands at 91.5097%

For reference, reported Percentage intact, CWE 4h for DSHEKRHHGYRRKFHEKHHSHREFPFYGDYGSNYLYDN [Hst1] stands at 73.9107%

For reference, reported Percentage intact, CWE 4h for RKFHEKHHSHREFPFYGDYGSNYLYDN [Hst2] stands at 54.5442%

For reference, reported Percentage intact, CWE 4h for cyclo(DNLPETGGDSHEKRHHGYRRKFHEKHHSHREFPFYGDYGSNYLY) [cHst1] stands at 83.8816%

* * *

Can you tell me remaining at 24 h, 0.5 mg/ml for the items I'm about to list?
experiment: Stability in chronic wound extracts (CWE), capillary zone electrophoresis; assay type: in vitro ADME, human; conditions: human, chronic wound extracts (CWE); 1 mg/ml in PBS mixed 1:1 with CWE (1 mg/ml protein, pools of 5 donors), 37°C, 24 h; CZE, 0 h = 100%; mean of 3 independent experiments; read-out: Original amount of peptide remaining intact after 24 h in CWE
Where no end group is shown, it is not given here.
Give the value in % but do not write % after it.

For reference, reported remaining at 24 h, 0.5 mg/ml for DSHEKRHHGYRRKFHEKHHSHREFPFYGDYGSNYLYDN [Hst1] stands at 8

For reference, reported remaining at 24 h, 0.5 mg/ml for cyclo(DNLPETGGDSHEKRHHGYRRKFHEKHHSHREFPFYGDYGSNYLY) [cHst1] stands at 55

For reference, reported remaining at 24 h, 0.5 mg/ml for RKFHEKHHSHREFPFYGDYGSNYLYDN [Hst2] stands at 6

For reference, reported remaining at 24 h, 0.5 mg/ml for SHREFPFYGDYGS [mad-Hst1] stands at 42

* * *

test: Stability in CWE with protease inhibitor cocktail (PIC), capillary zone electrophoresis; assay type: in vitro ADME, human; conditions: 1 mg/ml in PBS mixed 1:1 with CWE (1 mg/ml protein, pool of 5 donors) in PBS containing PIC (final 1:140 v/v), 37°C, 2 h; CZE, ratio to imidazole, 0 h = 100%; experiment 2 of 3
Where no end group is shown, it is not given here.
reported.property: Percentage intact, CWE + PIC 2h (%)
Give the value in % but do not write % after it.

For reference, reported Percentage intact, CWE + PIC 2h for cyclo(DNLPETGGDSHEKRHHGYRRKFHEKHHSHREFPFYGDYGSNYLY) [cHst1] stands at 89.9717

For reference, reported Percentage intact, CWE + PIC 2h for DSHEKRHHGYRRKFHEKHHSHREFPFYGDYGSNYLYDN [Hst1] stands at 90.6434

For reference, reported Percentage intact, CWE + PIC 2h for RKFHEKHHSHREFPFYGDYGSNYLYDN [Hst2] stands at 92.5142

For reference, reported Percentage intact, CWE + PIC 2h for SHREFPFYGDYGS [mad-Hst1] stands at 98.3314

* * *

assay: Stability in CWE with protease inhibitor cocktail (PIC), capillary zone electrophoresis; format: in vitro ADME, human; conditions: 1 mg/ml in PBS mixed 1:1 with CWE (1 mg/ml protein, pool of 5 donors) in PBS containing PIC (final 1:140 v/v), 37°C, 48 h; CZE, ratio to imidazole, 0 h = 100%; experiment 3 of 3
Where no end group is shown, it is not given here.
Can you tell me Percentage intact, CWE + PIC 48h for the items I'm about to list?

For reference, reported Percentage intact, CWE + PIC 48h for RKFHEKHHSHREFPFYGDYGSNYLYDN [Hst2] stands at 75.4922%

For reference, reported Percentage intact, CWE + PIC 48h for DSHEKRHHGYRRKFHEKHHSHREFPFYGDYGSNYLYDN [Hst1] stands at 54.0682%

For reference, reported Percentage intact, CWE + PIC 48h for cyclo(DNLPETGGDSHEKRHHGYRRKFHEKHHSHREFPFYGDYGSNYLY) [cHst1] stands at 63.9246%

For reference, reported Percentage intact, CWE + PIC 48h for SHREFPFYGDYGS [mad-Hst1] stands at 83.127%

* * *

test: Dose response of Hst1 and PIC in the presence of CWE; assay type: in vitro ADME, human; settings: human, chronic wound extracts (CWE), with protease inhibitor cocktail (PIC), PIC:CWE 1:140 v/v, Hst1 1 mg/ml; PIC:CWE 1:140 v/v; CWE 1 mg/ml; 37°C, 24 h; CZE, 0 h = 100%; experiment 1 of 3; read-out: Intact Hst1, CWE + PIC 1:140 24h
Where no end group is shown, it is not given here.
reported.property: remaining at 24 h, 1 mg/ml (%)
Give the value in % but do not write % after it.

For reference, reported remaining at 24 h, 1 mg/ml for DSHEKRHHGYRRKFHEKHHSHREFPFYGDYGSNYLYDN [Hst1] stands at 76.2

* * *

assay: Stability in chronic wound extracts (CWE), capillary zone electrophoresis; assay type: in vitro ADME, human; details: 1 mg/ml in PBS mixed 1:1 with CWE (1 mg/ml protein, pool of 5 donors) in PBS, 37°C, 48 h; CZE, UV 200 nm, ratio to imidazole, 0 h = 100%; experiment 3 of 3
Where no end group is shown, it is not given here.
Can you tell me Percentage intact, CWE 48h for the items I'm about to list?
Give the value in % but do not write % after it.

For reference, reported Percentage intact, CWE 48h for SHREFPFYGDYGS [mad-Hst1] stands at 24.0021

For reference, reported Percentage intact, CWE 48h for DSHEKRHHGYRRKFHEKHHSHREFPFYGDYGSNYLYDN [Hst1] stands at 0.0001

For reference, reported Percentage intact, CWE 48h for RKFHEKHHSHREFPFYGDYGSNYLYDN [Hst2] stands at 0.0001

For reference, reported Percentage intact, CWE 48h for cyclo(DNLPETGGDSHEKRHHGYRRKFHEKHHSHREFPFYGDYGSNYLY) [cHst1] stands at 26.5123
